These measurements were taken from PubChem BioAssay AID1159580.

Here, each record is paired with measured normalized growth data.
Test: chemical genetic growth profiling, strain panel (AID 1159580);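 also: tested at 20 µM; growth read once vehicle control cultures reached saturation at 30 °C; 1 = growth at the plate median or of vehicle wells; lower values mean less growth of the strain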
Settings: S. cerevisiae deletion strains, growth OD, locus YJL166W, strain qcr8, stronger effect = lower value
About 2,000 (36%) of roughly 5,500 compounds were called active. Roughly 18% stayed inconclusive and do not appear here. This is one part of the list.
Measured Attribute: normalized growth

>>> val("CCCC(C)(COC(N)=O)COC(=O)NC(C)C (stereo unspecified)")
1.01
>>> val("C[C@@H]([C@H](O)c1ccccc1)N(C)C")
1.02
>>> val("CC1(C)C(=O)C=C[C@@]2(C)C1C[C@@H](O)[C@]1(C)C2CC[C@@]2(C)[C@H](c3ccoc3)OC(=O)[C@H]3O[C@]321 (stereo partly specified)")
1.01
>>> val("CC(C)(C)NCC(O)c1cc(Cl)c(N)c(Cl)c1 (stereo unspecified)")
0.991
>>> val("CC1(C)C=CC(=O)[C@@]2(C)C1CC(=O)[C@]1(C)C2CC[C@@]2(C)[C@H](c3ccoc3)OC(=O)C3OC321 (stereo partly specified)")
0.992
>>> val("COc1ccc(-c2cc(=O)c3c(O)cc(O[C@H]4O[C@H](CO[C@@H]5O[C@@H](C)[C@H](O)[C@@H](O)[C@H]5O)[C@@H](O)[C@H](O)[C@H]4O)cc3o2)cc1")
1

====

Assay: chemical genetic growth profiling, strain panel (AID 1159580);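 also: tested at 20 µM; growth read once vehicle control cultures reached saturation at 30 °C; 1 = growth at the plate median or of vehicle wells; lower values mean less growth of the strain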
Conditions: S. cerevisiae deletion strains, growth OD, locus YNL209W, strain ssb2, stronger effect = lower value
In all, about 5,500 compounds went through this assay and about 2,000 (36%) were called active. About 18% were inconclusive and are not listed. The list shows a part of the results.
This section presents compounds with their documented normalized growth values.
Measured Attribute: normalized growth

>>> val("CN[C@@H]1C(O)[C@@H](O[C@@H]2[C@@H](O)[C@H](O[C@H]3OC(CN)=CC[C@H]3N)[C@@H](N)C[C@H]2N)OC[C@]1(C)O (some centres undefined)")
1.01
>>> val("Oc1ccc2c(c1)OCC1(O)Cc3cc(O)c(O)cc3C21 (centres undefined)")
1.01
>>> val("CC1O[C@@H](Oc2c(-c3ccc(O)c(O)c3)oc3cc(O)cc(O)c3c2=O)[C@H](O)[C@H](O)[C@H]1O (some centres undefined)")
0.984
>>> val("CN[C@@H]1[C@@H](O)C(OC2[C@@H](N)C[C@@H](N)[C@H](O[C@H]3O[C@H](C(C)O)[C@@H](O)[C@H](O)[C@H]3N)[C@H]2O)OC[C@]1(C)O (some centres undefined)")
0.994
>>> val("O=c1cc(-c2ccc(O)cc2)oc2cc(O[C@@H]3O[C@H](CO)[C@@H](O)[C@H](O)[C@H]3O)cc(O)c12")
0.994
>>> val("CC(=O)Oc1ccc2c(c1OC(C)=O)OCC1(O)Cc3c(cc(OC(C)=O)c(OC(C)=O)c3OC(C)=O)C21 (centres undefined)")
0.973
>>> val("NC(=O)c1ncn([C@@H]2O[C@H](CO)[C@@H](O)[C@H]2O)n1")
1
>>> val("COc1ccc(-c2cc(=O)c3c(O)cc(O[C@@H]4O[C@H](CO[C@H]5O[C@H](C)[C@@H](O)[C@H](O)[C@@H]5O)[C@@H](O)[C@H](O)[C@H]4O)cc3o2)cc1O")
1.01
>>> val("O=c1ccc2cc(OC3OC(CO)C(O)C(O)C3O)c(O)cc2o1 (centres undefined)")
0.99
>>> val("CCN[C@@H]1C[C@H](N)[C@@H](O[C@H]2OC(CN)=CC[C@H]2N)[C@H](O)[C@H]1OC1OC[C@](C)(O)[C@H](NC)[C@H]1O (some centres undefined)")
1
>>> val("NC(=O)NCCCC(N)C(=O)O (centres undefined)")
1
>>> val("NS(=O)(=O)c1cc(C2(O)NC(=O)c3ccccc32)ccc1Cl (centres undefined)")
0.997
>>> val("CC(C)(C)NCC(O)c1cc(Cl)c(N)c(Cl)c1 (centres undefined)")
1.01
>>> val("C[C@]12CCC3c4ccc(O)cc4CCC3C1CC[C@@H]2O (some centres undefined)")
1.01
